- PROCEDURE_TEXT: Metabolic stability in mouse hepatocytes at 2 uM incubated for 2 hr
- Type: ADME, cell-based, Hepatocyte
- MEASUREMENT_CONDITIONS: read-out: Stability
ENDPOINT_NAME: remaining at 2 h, 2 µM (%)
// return numeric value only (unit: %, not printed)

Query string: Return value of remaining at 2 h, 2 µM for input C[C@H]1SC(N)=N[C@](C)(c2cc(NC(=O)c3cnc(OCF)cn3)ccc2F)[C@H]1F , no commentary.
Result string: 71

====

- PROCEDURE_TEXT: Fraction unbound in monkey plasma after 24 hrs by equilibrium dialysis based LC-MS/MS analysis
- Format: ADME, cell-free, Macaca mulatta
- MEASUREMENT_CONDITIONS: rhesus monkey
ENDPOINT_NAME: fraction unbound at 24 h
Kindly provide the number alone.

Query string: Return value of fraction unbound at 24 h for input C[C@H]1SC(N)=N[C@](C)(c2cc(NC(=O)c3cnc(OCF)cn3)ccc2F)[C@H]1F , no commentary.
Result string: 0.12
